target.of.assay: hHsp90β (Homo sapiens, UniProt P08238)
Sequence (P08238 whole entry): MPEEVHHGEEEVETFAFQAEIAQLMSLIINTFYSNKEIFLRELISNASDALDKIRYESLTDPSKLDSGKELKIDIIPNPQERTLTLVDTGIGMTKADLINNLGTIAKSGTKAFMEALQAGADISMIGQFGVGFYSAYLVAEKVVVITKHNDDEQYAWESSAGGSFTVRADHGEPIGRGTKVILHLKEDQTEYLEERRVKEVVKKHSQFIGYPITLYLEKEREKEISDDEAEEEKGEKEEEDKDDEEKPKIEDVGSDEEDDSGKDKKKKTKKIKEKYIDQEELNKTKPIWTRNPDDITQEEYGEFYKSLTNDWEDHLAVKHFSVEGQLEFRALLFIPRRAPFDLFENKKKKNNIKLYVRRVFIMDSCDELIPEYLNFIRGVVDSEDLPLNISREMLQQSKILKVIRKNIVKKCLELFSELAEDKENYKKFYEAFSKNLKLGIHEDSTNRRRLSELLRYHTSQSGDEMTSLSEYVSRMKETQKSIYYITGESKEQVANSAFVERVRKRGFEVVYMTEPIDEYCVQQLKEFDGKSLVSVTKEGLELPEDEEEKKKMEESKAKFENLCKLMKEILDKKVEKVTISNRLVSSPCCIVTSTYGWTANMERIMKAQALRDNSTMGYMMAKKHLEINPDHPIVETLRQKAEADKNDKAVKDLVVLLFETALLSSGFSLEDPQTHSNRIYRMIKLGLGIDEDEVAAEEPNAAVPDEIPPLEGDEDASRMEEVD
assay.summary: Tryptophan fluorescence quenching interaction assay
condition.parameters: full-length, tryptophan fluorescence quenching; read-out: KDapp hHsp90β
metric: Kd (µM)

INSERT INTO results (given_smiles, metric, unit_spec, number) VALUES
  ('N=C(N)NN=Cc1ccc2cccc(OCc3ccccc3)c2n1', 'Kd', 'µM', 5),
  ('N=C(N)SCc1nc2ccccc2c(=O)n1-c1ccccc1', 'Kd', 'µM', 21),
  ('Cc1cc(CSC(=N)N)c2oc(-c3ccccc3)cc(=O)c2c1', 'Kd', 'µM', 15),
  ('N=C(N)Nc1nc(-c2ccccc2)c2ccccc2n1', 'Kd', 'µM', 20),
  ('N=C(N)NN=Cc1cnn(Cc2ccccc2)c1', 'Kd', 'µM', 14);

---

compounds and their reported pIC50
System: promastigote forms of L. braziliensis
assay.summary: In vitro IC50 determination (leishmanicidal activity, MTT/PMS)
Format: cell-based
condition.parameters: promastigotes, 72 h, RT
pIC50: −log10 of the molar value.
metric: pIC50

INSERT INTO results (compound, censoring_qualifier, number) VALUES
  ('Cc1cc(CSC(=N)N)c2oc(-c3ccccc3)cc(=O)c2c1 [Glb25]', '<', 3.70),
  ('N=C(N)Nc1nc(-c2ccccc2)c2ccccc2n1 [Glb08]', '=', 4.37),
  ('N=C(N)SCc1nc2ccccc2c(=O)n1-c1ccccc1 [Glb23]', '<', 4.00),
  ('N=C(N)NN=Cc1cnn(Cc2ccccc2)c1 [Glb15]', '=', 4.15),
  ('N=C(N)NN=Cc1ccc2cccc(OCc3ccccc3)c2n1 [Glb27]', '=', 4.96),
  ('Cc1cccc(Oc2ccccc2CNC(=N)N)c1 [Glb17]', '=', 5.40),
  ('N=C(N)NCc1cn(-c2ccccc2)nc1-c1ccccc1 [Glb14]', '=', 4.52),
  ('N=C(N)NCc1ccc(Oc2ccc(F)cc2)cc1 [Glb16]', '=', 4.92);

---

target.of.assay: LbHsp90 (Leishmania braziliensis, UniProt A4HL70)
Sequence (A4HL70 entry or part of it): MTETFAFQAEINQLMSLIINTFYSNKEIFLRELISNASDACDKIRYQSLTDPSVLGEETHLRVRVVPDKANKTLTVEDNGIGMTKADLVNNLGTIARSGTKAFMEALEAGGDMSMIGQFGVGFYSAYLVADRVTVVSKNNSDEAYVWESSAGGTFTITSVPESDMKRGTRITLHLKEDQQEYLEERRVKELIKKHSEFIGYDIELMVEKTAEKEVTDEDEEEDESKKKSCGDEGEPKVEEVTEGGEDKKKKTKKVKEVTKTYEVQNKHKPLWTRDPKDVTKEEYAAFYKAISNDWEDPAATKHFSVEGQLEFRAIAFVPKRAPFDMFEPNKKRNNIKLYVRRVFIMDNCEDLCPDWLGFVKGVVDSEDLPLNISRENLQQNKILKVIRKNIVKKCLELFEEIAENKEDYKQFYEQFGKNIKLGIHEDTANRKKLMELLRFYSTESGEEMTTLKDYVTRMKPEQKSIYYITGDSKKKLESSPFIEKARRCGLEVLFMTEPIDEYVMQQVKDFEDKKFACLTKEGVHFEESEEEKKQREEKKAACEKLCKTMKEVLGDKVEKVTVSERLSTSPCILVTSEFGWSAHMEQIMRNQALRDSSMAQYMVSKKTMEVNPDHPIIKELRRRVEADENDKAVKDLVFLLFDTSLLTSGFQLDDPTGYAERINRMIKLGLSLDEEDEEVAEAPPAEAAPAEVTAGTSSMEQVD
assay.summary: ATPase activity inhibition assay (EnzChek Pi quantification)
Assay type: biochemical
Description: The ATPase activity of LbHsp90 and hHsp90β was evaluated spectrophotometrically through inorganic phosphate (Pi) quantification following ATP hydrolysis, by the EnzChek™ assay kit (Invitrogen®) as previous described[31]^,[34]. […] The assays were performed in a 96-well plate and kinetic parameters determined by Michaelis–Menten fitting using GraphPad Prism 6 software. […]
pIC50: −log10 of the molar value.
metric: pIC50

INSERT INTO results (molecule, number) VALUES
  ('COC1=C2C[C@@H](C)C[C@H](OC)[C@H](O)[C@@H](C)/C=C(\C)[C@H](OC(N)=O)[C@@H](OC)/C=C\C=C(/C)C(=O)NC(=CC1=O)C2=O [GA, geldanamycin, reference compound]', 5.05);

---

target.of.assay: LbHsp90 (Leishmania braziliensis, UniProt A4HL70)
assay.summary: Tryptophan fluorescence quenching interaction assay
Assay type: binding
condition.parameters: full-length, tryptophan fluorescence quenching; read-out: KDapp LbHsp90
This section presents compounds with their documented Kd values.
metric: Kd (µM)

INSERT INTO measurements (given_smiles, metric, number) VALUES
  ('N=C(N)NN=Cc1cnn(Cc2ccccc2)c1', 'Kd', 14),
  ('Cc1cc(CSC(=N)N)c2oc(-c3ccccc3)cc(=O)c2c1', 'Kd', 7),
  ('N=C(N)Nc1nc(-c2ccccc2)c2ccccc2n1', 'Kd', 13),
  ('N=C(N)SCc1nc2ccccc2c(=O)n1-c1ccccc1', 'Kd', 26),
  ('N=C(N)NN=Cc1ccc2cccc(OCc3ccccc3)c2n1', 'Kd', 7);

---

Test system: Balb-c 3T3 clone A31 mouse fibroblasts
assay.summary: Cytotoxic assay (MTT)
Format: cell-based
condition.parameters: Balb-c 3T3 mouse fibroblasts, 72 h, 37 °C
pIC50: −log10 of the molar value.
Form field: pIC50 (one value per entry).
metric: pIC50

INSERT INTO results (given_smiles, censoring_qualifier, number) VALUES
  ('N=C(N)NN=Cc1cnn(Cc2ccccc2)c1', '<', 3.70),
  ('N=C(N)NCc1ccc(Oc2ccc(F)cc2)cc1', '=', 4.64),
  ('N=C(N)Nc1nc(-c2ccccc2)c2ccccc2n1', '=', 4.12),
  ('Cc1cccc(Oc2ccccc2CNC(=N)N)c1', '=', 4.24),
  ('N=C(N)NN=Cc1ccc2cccc(OCc3ccccc3)c2n1', '=', 4.89),
  ('Cc1cc(CSC(=N)N)c2oc(-c3ccccc3)cc(=O)c2c1', '=', 4.96),
  ('N=C(N)SCc1nc2ccccc2c(=O)n1-c1ccccc1', '=', 4.26),
  ('N=C(N)NCc1cn(-c2ccccc2)nc1-c1ccccc1', '<', 3.70);

---

target.of.assay: hHsp90βN (Homo sapiens, UniProt P08238)
Construct: N-terminal domain construct (Hsp90βN – residues 1–223); His-tag (cleaved yes)
assay.summary: Tryptophan fluorescence quenching interaction assay
condition.parameters: N-terminal domain, read-out: KDapp hHsp90βN
pKd: −log10 of the molar value.
metric: pKd

INSERT INTO results (given_smiles, metric, number) VALUES
  ('N=C(N)Nc1nc(-c2ccccc2)c2ccccc2n1', 'pKd', 4.54),
  ('N=C(N)NN=Cc1ccc2cccc(OCc3ccccc3)c2n1', 'pKd', 5.22),
  ('Cc1cc(CSC(=N)N)c2oc(-c3ccccc3)cc(=O)c2c1', 'pKd', 4.85),
  ('N=C(N)NN=Cc1cnn(Cc2ccccc2)c1', 'pKd', 4.92),
  ('N=C(N)SCc1nc2ccccc2c(=O)n1-c1ccccc1', 'pKd', 4.70);

---

target.of.assay: LbHsp90 (Leishmania braziliensis)
assay.summary: ATPase activity inhibition assay (EnzChek Pi quantification)
Type: biochemical
condition.parameters: compound 1 to 75 μM, triplicate; read-out: IC50 LbHsp90 ATPase activity inhibition
metric: IC50 (µM)

INSERT INTO results (molecule, number) VALUES
  ('N=C(N)Nc1nc(-c2ccccc2)c2ccccc2n1 [Glb08]', 30),
  ('N=C(N)SCc1nc2ccccc2c(=O)n1-c1ccccc1 [Glb23]', 35),
  ('N=C(N)NN=Cc1cnn(Cc2ccccc2)c1 [Glb15]', 36);
